Test system: glycogen synthase kinase-3 (GSK3A per assay name; protocol says GSK3B)
assay-summary: GSK3 binders on small-molecule microarrays, primary screen, biochemical, small-molecule microarray, 635 nm fluorescence, GSK3A (AID 1103); further: the record names both GSK3A and GSK3B
run-conditions: small-molecule microarray binding, fluorescence 635 nm; higher = more signal
So basically, the class depends on measured composite z-score, and the ranges are low (below 0.04), medium (0.04 to below 0.6), high (0.6 or more)

Exam item: assign `COCCOC(=O)N1C(=O)[C@@]2(c3cc(C#CCNC(N)=O)ccc31)[C@H](c1ccccc1OCCO)N1[C@H](c3ccccc3)[C@H](c3ccccc3)OC(=O)[C@H]1[C@@H]2C(=O)N1CCCCCCC1` to the correct category.
high

Exam item: assign `COC(=O)[C@@]1(Cc2ccccc2)[C@H]2c3cc(C(=O)N(C)C)n(CCF)c3C[C@H]2CN1C(=O)c1ccccc1` to the correct category.
medium

Exam item: assign `C=C(C(=O)CC[C@@H](OC(=O)c1ccccc1-c1ccccc1C(=O)O)c1cccc(OCCO)c1)C(C)C` to the correct category.
medium

Exam item: assign `C=C1C(=O)C=C2CN(C(=O)c3ccccc3)[C@@](Cc3ccc(F)cc3)(C(=O)OC)[C@@H]12` to the correct category.
high

Exam item: assign `C=CC[C@H](OC(=O)Nc1ccc(SC)cc1)c1ccc(O)c(F)c1` to the correct category.
low

Exam item: assign `CC[C@@H](O[Si](C#C[Si](C(C)C)(C(C)C)C(C)C)(C(C)C)C(C)C)c1cn([C@H](CO)Cc2ccccc2)nn1` to the correct category.
medium

Exam item: assign `Cc1cccc([C@H]2C[C@H]3C(Br)=C[C@@]2(CO)C(=O)[C@]32CO2)c1` to the correct category.
low

Exam item: assign `COC(=O)[C@@]1(Cc2ccccc2)[C@H]2c3cc(C(=O)N(C)C)n(Cc4nc5ccccc5[nH]4)c3C[C@H]2CN1C(=O)c1ccccc1` to the correct category.
high

Exam item: assign `CCCCC=C[C@@H](NC(=O)C(C)(C)C)c1ccccc1` to the correct category.
high

Exam item: assign `CCOC(=O)C[C@H]1[C@H](OC(=O)c2ccccc2-c2ccccc2)[C@@H](NC(=O)CC(C)C)c2cc(OCCCO)ccc2N1C(=O)c1ccccc1` to the correct category.
medium

Exam item: assign O=C1NC(=O)C2C1C=CC(C(O)C(c1ccccc1)c1ccccc1)N2Nc1ccccn1 (stereo unspecified) to the correct category.
low

Exam item: assign O=C1C2C=CC(C(O)C3CCCCC3)N(Nc3ccccc3F)C2C(=O)N1c1ccccc1 (stereo unspecified) to the correct category.
high

Exam item: assign `CC(C)C(=C=CC[C@H](O)c1cccc(OCCO)c1)C[C@H](O)c1ccccn1` to the correct category.
medium

Exam item: assign `CCCNC(=O)[C@@]1(Sc2ccc(C)cc2)CC(=O)N(Cc2cc(C(F)(F)F)cc(C(F)(F)F)c2)[C@@H]1c1ccc(CO)cc1` to the correct category.
low

Exam item: assign C[C@]12C(=O)N(CCO)[C@@H]3C(=O)N(c4ccc(Cl)cc4)CC=CC31O[C@@H]1/C=C\CCCOC(=O)C12 (stereo partly specified) to the correct category.
low

Exam item: assign CCCCCN1CC=CC23O[C@@H]4/C=C\CCCOC(=O)C4[C@H]2C(=O)N(CCCCCO)[C@@H]3C1=O (stereo partly specified) to the correct category.
low

###

Assign composite z-score to each entry below.
Test system: Lefty1
assay-summary: Lefty1 binders on small-molecule microarrays, primary screen, biochemical, small-molecule microarray, 635/667 nm fluorescence (AID 1139)
run-conditions: small-molecule microarray binding, fluorescence 635/667; higher = more signal
// keep it numeric: no unit symbol after the value

Input `O=C1OC[C@@H](c2ccccc2)n2cc(/C=C/c3ccccc3)cc21` . Output composite z-score: -0.0599

Input `CC(=O)NCCCC[C@@H]1NC(=O)[C@H]2C[C@@H](C(=O)NCCCCCN)[C@@H](c3ccc(O)cc3)N2C1=O` . Output composite z-score: 0.944

Input `COCCOC(=O)N1C(=O)[C@@]2(c3cc(C#CCNC(N)=O)ccc31)[C@H](C(=O)Nc1nc3ccccc3s1)[C@H]1C(=O)O[C@H](c3ccccc3)[C@H](c3ccccc3)N1[C@@H]2c1ccc(O)cc1` . Output composite z-score: 0.392

Input `CCCCC(=C=CC[C@H](O)c1cccc(OCCO)c1)C[C@H](O)c1cc(Cl)cc(Cl)c1O` . Output composite z-score: 1.46

###

assay-summary: MM1S myeloma cell viability, profiling panel, resazurin fluorescence, basal, 24 h, PK04 Diversity Set (AID 1174);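 further: MM1S multiple myeloma cell line; test concentration not given here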
run-conditions: higher = more signal, called active from +8 up or from −8 down
Assign z-score to each entry below.
// keep it numeric: no unit symbol after the value

Input CN1C(=O)C2CC=C(C3=CCO[C@@H]3[C@H]3CCCN3S(=O)(=O)c3ccccc3[N+](=O)[O-])CC2C1=O (some centres not stated) . Output z-score: -0.354

Input `C[N+](C)(C)CCCC[C@@H]1NC(=O)[C@H]2C[C@@H](C(=O)NCCCCCN)[C@@H](c3ccc(O)cc3)N2C1=O` . Output z-score: 0.715

Input O=C1C2C=CC(C(O)C3CC=CCC3)N(Nc3ccc([N+](=O)[O-])cc3)C2C(=O)N1c1ccccc1 (configuration not stated) . Output z-score: -0.428

Input O=C1NC(=O)C2C1C=CC(C(O)C1CCCCC1)N2Nc1ccccn1 (configuration not stated) . Output z-score: -1.27

Input `COCCOC(=O)N1C(=O)[C@@]2(c3cc(C#CCNC(N)=O)ccc31)[C@H](c1ccc(O)cc1)N1[C@H](c3ccccc3)[C@H](c3ccccc3)OC(=O)[C@H]1[C@@H]2C(=O)N1CCc2cc(OC)c(OC)cc2C1` . Output z-score: -0.202

Input C=CCC(OC(C)=O)[C@@H]1[C@@H](N(Cc2ccc(-c3ccccc3)cc2)C(=O)Cc2ccc(OC)cc2)c2cc(OCCCO)ccc2N1C(=O)c1ccc2ccccc2c1 (some centres not stated) . Output z-score: -0.536

Input `CC(=O)NCCCC[C@@H]1NC(=O)[C@H]2C[C@@H](C(=O)NCCCCCN)[C@@H](c3ccc(O)cc3)N2C1=O` . Output z-score: -0.336

###

assay-summary: inhibitors of hydroxyurea-induced Chk1 phosphorylation, primary screen, imaging, HeLa, phospho-Chk1 antibody, percent positive cells (AID 1186)
run-conditions: hydroxyurea-induced phospho-Chk1 immunofluorescence imaging, higher = more signal
Assign z-score to each entry below.
// keep it numeric: no unit symbol after the value

Input C=C(C)C1CN([C@H](CO)c2ccccc2)C(=O)/C1=C\c1ccccc1 (stereo not given in full) . Output z-score: -0.484

Input `CC(=O)NCCCC[C@@H]1NC(=O)[C@H]2C[C@@H](C(=O)O)[C@@H](c3cccc(OCCO)c3)N2C1=O` . Output z-score: 0.165

Input CC(C)c1ccc(NN2C(C(O)c3ccccc3)C=CC3C(=O)N(c4ccccc4)C(=O)C32)cc1 (stereo not given) . Output z-score: -1.43

Input `O=C(NC1CC1)[C@@H]1c2ccccc2C(=O)N(C2CCCCC2)[C@H]1c1ccc(CO)cc1` . Output z-score: -0.312

Input `COc1ccc(-c2cc3c(c(CCc4ccccc4)n2)[Si](C(C)C)(C(C)C)O[C@H]3c2ccccc2)cn1` . Output z-score: -0.0745

Input `COC(=O)C[C@H]1O[C@]2(C(=O)N(C)c3ccccc32)[C@@H](C)[C@@H]1[Si](C)(C)c1ccccc1` . Output z-score: -0.0412

Input CC(C)c1ccc(NN2C(C(O)C(C)c3ccccc3)C=CC3C(=O)N(c4ccccc4)C(=O)C32)cc1 (stereo not given) . Output z-score: 0.545

Input `COc1ccc(CCNC(=O)[C@@H]2c3ccccc3C(=O)N(Cc3cc(F)cc(C(F)(F)F)c3)[C@H]2c2ccc(CO)cc2)cc1` . Output z-score: -0.0525

Input `CCCCC(=C=CC[C@@H](O)c1ccc(OCCO)cc1)CCO` . Output z-score: 0.102

Input `COc1ccc([Si](C)(C)[C@H]2[C@H](CC(=O)N3CCC[C@H]3CO)O[C@@]3(C(=O)N(Cc4cccc(N5CCCCC5=O)c4)c4ccccc43)[C@@H]2C)cc1` . Output z-score: -0.319

Input COc1ccc(C(O)C2C=CC3C(=O)N(c4ccccc4)C(=O)C3N2Nc2ccccc2F)c2ccccc12 (stereo not given) . Output z-score: 0.0395

Input COc1ccc(C(O)C2C=CC3C(=O)N(C)C(=O)C3N2Nc2ccccc2)cc1 (stereo not given) . Output z-score: 0.158

Input `O=C1c2ccccc2[C@](Cc2ccccc2I)(C(=O)NCCN2CCOCC2)[C@H](c2ccc(CO)cc2)N1Cc1ccccc1C(F)(F)F` . Output z-score: -0.0107

Input `COc1ccc(CCNC(=O)[C@@H]2c3ccccc3C(=O)N(C(C)C)[C@H]2c2ccc(CO)cc2)cc1` . Output z-score: -0.182

Input `CO[C@H]1O[C@H](CO)[C@@H](OC(=O)Nc2cccc(F)c2)[C@H](OC(=O)Nc2ccc3c(c2)OCO3)[C@@H]1OC(=O)Nc1ccc2c(c1)OCO2` . Output z-score: 0.223

Input `CCCCC=C[C@@H](NC(=O)C(C)(C)C)c1ccccc1` . Output z-score: 0.579

Input COC(=O)c1ccc(OC)c(/C=C\CC(OC(=O)c2ccncc2)c2ccccc2)c1 (stereo not given) . Output z-score: -0.843

Input `C=C(CCCC)C(=O)CC[C@H](OC(=O)c1ccccc1-c1ccccc1C(=O)O)c1cccc(OCCO)c1` . Output z-score: 1.01

Input `CC(=O)NCCCC[C@@H]1NC(=O)[C@H]2C[C@@H](C(=O)NCCCCCN)[C@@H](c3ccc(O)cc3)N2C1=O` . Output z-score: 0.32

Input `C[C@]1(C(=O)O)c2ccccc2C(=O)N(Cc2cc(C(F)(F)F)cc(C(F)(F)F)c2)[C@H]1c1ccc(CO)cc1` . Output z-score: 0.19

Input CCOC(=O)C1=CCC(c2cccn2C(=O)OC(C)(C)C)N(S(=O)(=O)c2ccc(C)cc2)C1 (stereo not given) . Output z-score: -1.06

Input CC(CO)N1C(=O)[C@@H]2[C@H]3C(=O)OCC=C[C@H]3OC23C=CCN(c2ccc4ccccc4c2)C(=O)[C@@H]13 (stereo not given in full) . Output z-score: -0.233

Input `CN(C)CCCC[C@@H]1NC(=O)[C@H]2C[C@@H](C(=O)NCCCCCCNC(=O)CS)[C@@H](c3cccc(OCCO)c3)N2C1=O` . Output z-score: 0.542

Input `CN(C)C(=O)[C@]1(CCS(=O)(=O)c2ccccc2)N=C(c2ccc(OCCCO)cc2)O[C@@H]1c1ccccc1CN=[N+]=[N-]` . Output z-score: -0.376

Input CCOC(=O)C1=CCC(c2ccncc2)N(S(=O)(=O)c2ccc(C)cc2)C1 (stereo not given) . Output z-score: 0.0325

Input `C=C(CC1([C@@H](NP(=O)(c2ccccc2)c2ccccc2)[C@H]2C[C@@H]2CCCC)CC1)c1cccc(OC)c1` . Output z-score: 0.731

Input `COc1cccc(C)c1NC(=O)O[C@H]1[C@H](OC(=O)Nc2ccccc2-c2ccccc2)[C@@H](OC(=O)Nc2ccccc2-c2ccccc2)[C@@H](OC)O[C@@H]1CO` . Output z-score: 0.609

Input `C=CCOC(=O)[C@@H]1[C@H]2C(=O)O[C@H](c3ccccc3)[C@H](c3ccccc3)N2[C@H](c2ccc(OCCOC(=O)[C@H]3C[C@H]4C(=O)N[C@@H](CCCCN(C)C)C(=O)N4[C@H]3c3cccc(OCCO)c3)cc2)[C@@]12C(=O)Nc1ccccc12` . Output z-score: -0.224

Input `COC(=O)[C@@]1(Cc2ccc(F)cc2)[C@H]2c3cc(C(=O)N(C)C)n(CCF)c3C[C@H]2CN1C(=O)c1ccccc1` . Output z-score: -0.847

Input `COC(=O)[C@@]1(Cc2ccc(F)cc2)[C@H]2c3cc(C(=O)N4CCCC4)n(CCc4c[nH]c5cc(F)ccc45)c3C[C@H]2CN1C(=O)c1ccccc1` . Output z-score: -0.332
